measurementTarget: Telomerase reverse transcriptase (Homo sapiens, UniProt O14746)
Sequence (O14746 whole entry): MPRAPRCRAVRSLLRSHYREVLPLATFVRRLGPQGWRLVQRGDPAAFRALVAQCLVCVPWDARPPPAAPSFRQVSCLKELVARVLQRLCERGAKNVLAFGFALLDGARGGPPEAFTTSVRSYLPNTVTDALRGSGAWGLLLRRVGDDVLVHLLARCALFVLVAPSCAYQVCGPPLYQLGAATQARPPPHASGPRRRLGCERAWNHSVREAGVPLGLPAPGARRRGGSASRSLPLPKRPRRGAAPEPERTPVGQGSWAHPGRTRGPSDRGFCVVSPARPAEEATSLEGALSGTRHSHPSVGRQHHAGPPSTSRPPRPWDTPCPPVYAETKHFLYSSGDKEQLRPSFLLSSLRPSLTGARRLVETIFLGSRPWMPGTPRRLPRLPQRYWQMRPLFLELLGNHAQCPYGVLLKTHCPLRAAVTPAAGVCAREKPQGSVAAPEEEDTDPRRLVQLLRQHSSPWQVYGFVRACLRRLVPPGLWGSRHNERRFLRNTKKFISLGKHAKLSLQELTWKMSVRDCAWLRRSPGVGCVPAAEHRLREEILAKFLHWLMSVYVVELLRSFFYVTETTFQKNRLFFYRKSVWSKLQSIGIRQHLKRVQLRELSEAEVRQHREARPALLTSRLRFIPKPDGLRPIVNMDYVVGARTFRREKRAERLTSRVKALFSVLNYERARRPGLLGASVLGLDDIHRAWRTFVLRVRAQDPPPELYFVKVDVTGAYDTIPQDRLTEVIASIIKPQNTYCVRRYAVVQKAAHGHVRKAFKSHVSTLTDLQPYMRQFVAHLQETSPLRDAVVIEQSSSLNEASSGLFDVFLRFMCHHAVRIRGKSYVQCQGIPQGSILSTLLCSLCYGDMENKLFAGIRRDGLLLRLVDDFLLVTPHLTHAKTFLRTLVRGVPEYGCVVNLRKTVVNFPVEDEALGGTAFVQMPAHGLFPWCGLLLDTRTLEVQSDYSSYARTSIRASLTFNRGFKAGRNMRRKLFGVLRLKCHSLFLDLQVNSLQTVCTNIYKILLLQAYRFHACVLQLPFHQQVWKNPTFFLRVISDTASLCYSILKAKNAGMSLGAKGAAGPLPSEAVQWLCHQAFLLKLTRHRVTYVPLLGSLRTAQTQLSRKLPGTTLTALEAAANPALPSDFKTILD
assayRemarks: Decrease in telomerase processivity assessed as decrease in telomerase elongation in presence of Telo3R primer by primer extension assay
Calls of active or inactive are those of the source. No cut-off for these calls is given here.
Answer with one of the outcomes 1 (yes) = active, 0 (no) = inactive

[
  {
    "compound": "Cc1oc2nc1-c1nc(co1)-c1nc(co1)-c1nc(co1)-c1nc(co1)-c1nc(co1)C1=NC(CS1)c1nc-2c(C)o1 (stereo not given)",
    "measurementTarget": "Telomerase reverse transcriptase (Homo sapiens, UniProt O14746)",
    "discreteLabel": "0 (no)"
  },
  {
    "compound": "CN(C)c1ccc(Nc2c3ccc(NC(=O)CCN4CCCC4)cc3nc3cc(NC(=O)CCN4CCCC4)ccc23)cc1",
    "measurementTarget": "Telomerase reverse transcriptase (Homo sapiens, UniProt O14746)",
    "discreteLabel": "0 (no)"
  },
  {
    "compound": "C[n+]1cc(NC(=O)c2cccc(C(=O)Nc3cc4ccccc4[n+](C)c3)n2)cc2ccccc21",
    "measurementTarget": "Telomerase reverse transcriptase (Homo sapiens, UniProt O14746)",
    "discreteLabel": "1 (yes)"
  },
  {
    "compound": "C[n+]1cc(NC(=O)c2ccc3ccc4ccc(C(=O)Nc5cc6ccccc6[n+](C)c5)nc4c3n2)cc2ccccc21",
    "measurementTarget": "Telomerase reverse transcriptase (Homo sapiens, UniProt O14746)",
    "discreteLabel": "1 (yes)"
  }
]

Now for another entry.
Inquiry: For this compound, state the assay outcome: `C[n+]1ccc(-c2c3nc(c(-c4cc[n+](C)cc4)c4ccc([nH]4)c(-c4cc[n+](C)cc4)c4ccc([nH]4)c(-c4cc[n+](C)cc4)c4nc2C=C4)C=C3)cc1`
Reply text: 0 (no)
